B1: Storkhead-box protein 2, residues 64 to 141; numbered along this chain, Q9P2F5 (parent)
chain: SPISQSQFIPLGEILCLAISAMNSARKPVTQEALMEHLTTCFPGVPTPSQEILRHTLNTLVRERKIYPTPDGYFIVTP

Variants of: B1
assay comment: abundance fitness (aPCA) (normalised: wild type 0, dead -1); higher = more abundant; growth selection in yeast, the domain comes from the species named
experimental conditions: Homo sapiens
readout name: abundance fitness

[[record]]
variant_designation = "N58Y"
readout_name = "abundance fitness"
assay_value = -0.203

[[record]]
variant_designation = "A18R"
readout_name = "abundance fitness"
assay_value = -0.148

[[record]]
variant_designation = "A25R"
readout_name = "abundance fitness"
assay_value = -0.066

[[record]]
variant_designation = "S20E"
readout_name = "abundance fitness"
assay_value = -0.022

[[record]]
variant_designation = "T39C"
readout_name = "abundance fitness"
assay_value = -0.038

[[record]]
variant_designation = "T40F"
readout_name = "abundance fitness"
assay_value = -0.105

[[record]]
variant_designation = "L17C"
readout_name = "abundance fitness"
assay_value = -0.116

